Cited source: patent US7632829B2

Parameter: pIC50. Scope: all listed entries.
# target or system: human chemokine receptor 2 isoform B (Homo sapiens)
# Sequence (P41597 1-360 isoform P41597-2): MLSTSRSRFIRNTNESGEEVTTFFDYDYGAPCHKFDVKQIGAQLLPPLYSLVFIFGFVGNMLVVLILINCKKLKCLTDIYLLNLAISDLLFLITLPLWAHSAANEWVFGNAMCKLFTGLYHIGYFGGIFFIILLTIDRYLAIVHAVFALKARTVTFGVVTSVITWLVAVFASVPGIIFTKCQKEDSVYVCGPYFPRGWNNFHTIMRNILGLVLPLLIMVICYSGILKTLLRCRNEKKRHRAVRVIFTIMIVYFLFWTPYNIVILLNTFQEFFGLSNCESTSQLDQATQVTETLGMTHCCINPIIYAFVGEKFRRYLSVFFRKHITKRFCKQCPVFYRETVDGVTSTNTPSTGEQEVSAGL
# protocol: Calcium mobilization assay (FLIPR, CHOK1-CCR2B-A5 cells, 20 nM MCP-1)
# measurement context: Ca mobilisation assay, CCR2, antagonist activity vs 20 nM MCP-1
pIC50: −log10 of the molar value.

{"molecule": "O=C(/C=C/c1ccc(Cl)c(F)c1)N1CCC(=O)N(CCCCN2CCC3(CC3)C(O)C2)CC1 (centres unmarked) [Example 416]", "target or system": "human chemokine receptor 2 isoform B (Homo sapiens)", "pIC50": 7.96}
{"molecule": "O=C(/C=C/c1ccc(Cl)c(F)c1)N1CCC(=O)N(CCCCN2CCC3(CC3)C(O)C2)CC1 (centres unmarked) [Example 415]", "target or system": "human chemokine receptor 2 isoform B (Homo sapiens)", "pIC50": 7.57}
{"molecule": "CC1CCCCN1CCCN1CCN(C(=O)/C=C/c2ccc(Cl)c(Cl)c2)CCC1=O (racemic) [Example 62]", "target or system": "human chemokine receptor 2 isoform B (Homo sapiens)", "pIC50": 6.78}
{"molecule": "O=C(/C=C/c1ccc(Cl)c(Cl)c1)N1CCC(=O)N(CCCN2CCC(O)(c3cccnc3)CC2)CC1 [Example 70]", "target or system": "human chemokine receptor 2 isoform B (Homo sapiens)", "pIC50": 6.84}
{"molecule": "O=C(/C=C/c1ccc(F)c(Cl)c1)N1CCC(=O)N(CCCCN2CCC(O)CC2)CC1 [Example 384]", "target or system": "human chemokine receptor 2 isoform B (Homo sapiens)", "pIC50": 6.48}
{"molecule": "O=C(/C=C/c1ccc(F)c(F)c1)N1CCC(=O)N(CCCN2CCC3(CC3)C(O)C2)CC1 (centres unmarked) [Example 495]", "target or system": "human chemokine receptor 2 isoform B (Homo sapiens)", "pIC50": 7.72}
{"molecule": "O=C(/C=C/c1ccc(F)c(Cl)c1)N1CCC(=O)N(CCCN2CCC(O)CC2)CC1 [Example 196]", "target or system": "human chemokine receptor 2 isoform B (Homo sapiens)", "pIC50": 6.06}
{"molecule": "O=C(/C=C/c1ccc(Cl)c(Cl)c1)N1CCC(=O)N(CCNC2CCOCC2)CC1 [Example 103]", "target or system": "human chemokine receptor 2 isoform B (Homo sapiens)", "pIC50": 6.41}
